Consider the following compounds; for each one, report its growth.
# Tested on: UACC-62 melanoma
# procedureSummary: NCI-60 one-dose screen, 48 h (100 = growth as untreated, 0 = no growth, -100 = all killed)
# conditionDetails: 10 µM unless noted
This is part of a sample that, as a whole, favours compounds with a hit. Of some 83,000 tested, about 20% had one in any assay.
Numbers only here, please. The scale is %.

Asked: // returns reported growth for input O=C(CC(O)c1ccccc1)Nc1ccccn1 (stereo not drawn)
Given back: 98.3

Asked: Which value of growth has been reported for `O=c1ccc2ccccc2o1` in the records?
Given back: 98.4

Asked: Field request: growth | item: `Cc1ccc(-c2c3c(N)c4c(nc3nc3c2c(C)nn3-c2ccccc2)CCCC4)cc1`
Given back: 106
